Entries annotated with measured pIC50
- system_tested: Serine/threonine-protein kinase ATR (Homo sapiens, UniProt Q13535)
- Sequence (Q13535 whole entry): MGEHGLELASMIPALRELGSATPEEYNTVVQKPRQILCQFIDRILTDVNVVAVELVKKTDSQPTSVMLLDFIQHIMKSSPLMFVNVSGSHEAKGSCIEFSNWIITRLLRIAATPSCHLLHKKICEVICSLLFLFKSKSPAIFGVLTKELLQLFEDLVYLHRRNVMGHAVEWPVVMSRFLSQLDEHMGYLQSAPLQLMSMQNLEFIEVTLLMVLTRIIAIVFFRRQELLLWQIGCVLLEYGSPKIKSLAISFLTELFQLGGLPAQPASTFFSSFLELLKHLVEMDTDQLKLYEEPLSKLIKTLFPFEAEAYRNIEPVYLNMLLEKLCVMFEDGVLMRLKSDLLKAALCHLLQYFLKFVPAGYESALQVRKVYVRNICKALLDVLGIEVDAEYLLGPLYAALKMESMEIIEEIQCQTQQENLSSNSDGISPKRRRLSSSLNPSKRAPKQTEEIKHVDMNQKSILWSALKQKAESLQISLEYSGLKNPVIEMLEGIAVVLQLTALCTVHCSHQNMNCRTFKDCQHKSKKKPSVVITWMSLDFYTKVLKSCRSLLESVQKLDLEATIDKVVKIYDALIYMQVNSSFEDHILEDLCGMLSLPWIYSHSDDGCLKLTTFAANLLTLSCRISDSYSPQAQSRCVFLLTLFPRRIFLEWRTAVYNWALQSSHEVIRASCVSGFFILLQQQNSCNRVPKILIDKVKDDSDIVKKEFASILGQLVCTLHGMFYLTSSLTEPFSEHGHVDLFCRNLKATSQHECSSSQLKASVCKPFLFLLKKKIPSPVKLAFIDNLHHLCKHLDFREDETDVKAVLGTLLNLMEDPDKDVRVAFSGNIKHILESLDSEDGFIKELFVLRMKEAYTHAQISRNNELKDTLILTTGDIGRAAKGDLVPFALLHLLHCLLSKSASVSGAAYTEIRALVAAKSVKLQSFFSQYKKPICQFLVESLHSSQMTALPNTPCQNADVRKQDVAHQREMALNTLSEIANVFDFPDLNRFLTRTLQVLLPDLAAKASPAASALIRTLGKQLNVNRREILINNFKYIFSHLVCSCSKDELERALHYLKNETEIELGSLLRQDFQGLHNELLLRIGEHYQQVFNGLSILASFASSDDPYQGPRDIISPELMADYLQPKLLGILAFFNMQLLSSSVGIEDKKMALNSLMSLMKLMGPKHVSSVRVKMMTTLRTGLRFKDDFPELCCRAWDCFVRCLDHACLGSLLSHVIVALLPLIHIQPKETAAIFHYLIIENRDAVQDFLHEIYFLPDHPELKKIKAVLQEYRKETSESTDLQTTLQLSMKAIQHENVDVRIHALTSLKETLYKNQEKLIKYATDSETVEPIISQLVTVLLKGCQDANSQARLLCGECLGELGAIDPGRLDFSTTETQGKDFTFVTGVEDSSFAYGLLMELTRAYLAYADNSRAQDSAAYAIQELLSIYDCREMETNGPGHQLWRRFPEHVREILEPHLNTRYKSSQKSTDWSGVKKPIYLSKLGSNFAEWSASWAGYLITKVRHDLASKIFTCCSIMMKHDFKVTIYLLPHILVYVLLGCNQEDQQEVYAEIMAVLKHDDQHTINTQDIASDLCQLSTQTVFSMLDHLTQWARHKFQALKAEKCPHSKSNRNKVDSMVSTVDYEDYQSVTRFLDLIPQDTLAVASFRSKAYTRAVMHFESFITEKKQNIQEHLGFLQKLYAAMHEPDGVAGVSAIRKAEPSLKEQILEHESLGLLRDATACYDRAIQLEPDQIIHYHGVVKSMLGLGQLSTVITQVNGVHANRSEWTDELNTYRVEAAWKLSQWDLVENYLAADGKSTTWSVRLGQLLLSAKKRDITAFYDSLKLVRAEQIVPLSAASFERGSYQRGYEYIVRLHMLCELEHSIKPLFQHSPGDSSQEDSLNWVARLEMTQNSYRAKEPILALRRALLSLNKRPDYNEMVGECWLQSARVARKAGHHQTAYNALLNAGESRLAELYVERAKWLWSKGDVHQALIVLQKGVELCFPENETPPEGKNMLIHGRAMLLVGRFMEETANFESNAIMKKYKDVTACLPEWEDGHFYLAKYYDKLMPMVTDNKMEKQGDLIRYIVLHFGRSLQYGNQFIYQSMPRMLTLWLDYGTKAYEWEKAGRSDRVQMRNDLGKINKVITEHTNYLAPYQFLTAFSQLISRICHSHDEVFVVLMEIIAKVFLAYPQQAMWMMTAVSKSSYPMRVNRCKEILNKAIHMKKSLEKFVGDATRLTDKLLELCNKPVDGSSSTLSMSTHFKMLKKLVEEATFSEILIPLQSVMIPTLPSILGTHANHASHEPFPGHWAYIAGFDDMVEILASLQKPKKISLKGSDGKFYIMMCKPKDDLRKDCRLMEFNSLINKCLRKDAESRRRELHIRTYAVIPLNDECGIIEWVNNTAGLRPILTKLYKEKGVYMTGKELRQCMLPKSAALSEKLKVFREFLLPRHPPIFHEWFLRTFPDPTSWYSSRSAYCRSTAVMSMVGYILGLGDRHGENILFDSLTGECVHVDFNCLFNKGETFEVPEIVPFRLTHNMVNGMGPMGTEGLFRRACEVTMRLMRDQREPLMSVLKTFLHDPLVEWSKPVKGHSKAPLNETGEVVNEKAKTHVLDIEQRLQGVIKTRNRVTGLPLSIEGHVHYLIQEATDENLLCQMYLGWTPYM
- test_protocol: Cellular Assay: Assay b) HT29 cells (ECACC #85061109) were seeded into 384 well assay plates (Costar #3712) at a density of 6000 cells/well in 40 μl EMEM medium containing 1% L glutamine and 10% FBS and allowed to adhere overnight. The following morning compound of Formula (I) in 100% DMSO was added to assay plates by acoustic dispensing. After 1 h incubation at 37° C. and 5% CO2, 40 nl of 3 mM 4NQO in 100% DMSO was added to all wells by acoustic dispensing, except minimum control wells which were left untreated with 4NQO to generate a null response control. Plates were returned to the incubator for a further 1 h. Then cells were fixed by adding 20 μl of 3.7% formaldehyde in PBS solution and incubating for 20 mins at r.t. Then 20 μl of 0.1% Triton X100 in PBS was added and incubated for 10 minutes at r.t., to permeabalise cells. Then the plates were washed once with 50 μl/well PBS, using a Biotek EL405 plate washer. Phospho-Chk1 Ser 345 antibody (Cell Signalling Technology #2348) was diluted 150 fold in PBS containing 0.05% polysorbate/Tween and 15 μl was added to each well and incubated over night at r.t. The next morning plates were washed three times with 50 μl/well PBS, using a Biotek EL405 plate washer, and then 20 μl of secondary Ab solution, containing 500 fold diluted Alexa Fluor 488 Goat anti-rabbit IgG (Molecular Probes #A-11008) and 0.002 mg/ml Hoeschst dye (Molecular Probes #H-3570), in PBST, was added. After 2 h incubation at r.t., the plates were washed three times with 50 μl/well PBS, using a Biotek EL405 plate washer, and plates were then sealed with black plate seals until read. Plates were read using an ArrayScan VTI instrument, using an XF53 filter with 10× objective. A two laser set up was used to analyse nuclear staining with Hoeschst (405 nm) and secondary antibody staining of pChk1 (488 nm).
pIC50: −log10 of the molar value.
quantity_name: pIC50

[[record]]
smiles_input = "CN(C)CCCOc1ccc(-c2ccc3ncc4c(c3c2)n(C2COC2)c(=O)n4C)cn1"
reported = "< 4.52"

[[record]]
smiles_input = "CN(C)CCCOc1ccc(-c2cc3c(cc2F)ncc2c3n([C@@H]3CCCOC3)c(=O)n2C)cn1"
reported = "< 4.52"

[[record]]
smiles_input = "CN(C)CCCOc1ccc(-c2ccc3ncc4c(c3c2)n([C@H]2C[C@@H](O)C2)c(=O)n4C)cn1"
reported = "< 4.52"

[[record]]
smiles_input = "CN(C)CCCOc1ccc(-c2cc3c(cc2F)ncc2c3n([C@H]3CCCOC3)c(=O)n2C)cn1"
reported = "< 4.53"

